The reported numbers originate from patent US20050003000A1.

# Time after which a 100% release / dissolution is seen values compiled below
method.notes: Powder dissolution / in vitro release rate of the pure active compound, phosphate buffer pH 7.4 USP XXIV, paddle process 100 rpm
Type: physicochemical
assay.setup: powder dissolution, pure active compound, phosphate buffer pH 7.4 USP XXIV

The following compounds have reported results that may help.
compound: CC(C)Cc1ccc(C(C)C(=O)O)cc1 (stereo not shown) [Example 1, ibuprofen]
measurement: 15 min

compound: CC(C)Cc1ccc(C(C)C(=O)O)cc1 (stereo not shown) [Example 6, ibuprofen]
measurement: 5 min

compound: CC(C)Cc1ccc(C(C)C(=O)O)cc1 (stereo not shown) [Example 5, ibuprofen]
measurement: 5 min

Query: Retrieve Time after which a 100% release / dissolution is seen measured for CC(C)Cc1ccc(C(C)C(=O)O)cc1 (stereo not shown) [Example 4, ibuprofen] and print it.
Reply: 5 min

Query: Dear colleague, please send me the reported Time after which a 100% release / dissolution is seen for CC(C)Cc1ccc(C(C)C(=O)O)cc1 (stereo not shown) [Commercial article, ibuprofen] when you can.
Reply: > 15 min

Query: Quote Time after which a 100% release / dissolution is seen reported for CC(C)Cc1ccc(C(C)C(=O)O)cc1 (stereo not shown) [Example 7, ibuprofen] please.
Reply: 5 min

----------
method.notes: Powder dissolution / in vitro release rate of the pure active compound, phosphate buffer pH 7.4 USP XXIV, paddle process 100 rpm
Type: physicochemical
assay.setup: Table 3, ibuprofen crystallized by displacement precipitation, after 2 min
Reported Amount released [%] after 2 min values for a set of compounds

Here is how some compounds turned out for Amount released [%] after 2 min.
compound: CC(C)Cc1ccc(C(C)C(=O)O)cc1 (stereo not shown) [Additive: sucrose monolaurate, ibuprofen]
Amount released [%] after 2 min: 85.2%
--
compound: CC(C)Cc1ccc(C(C)C(=O)O)cc1 (stereo not shown) [Suc. monolaurate + Kollicoat ® IR, ibuprofen]
Amount released [%] after 2 min: 97.8%
--
compound: CC(C)Cc1ccc(C(C)C(=O)O)cc1 (stereo not shown) [Suc. monolaurate + trehalose, ibuprofen]
Amount released [%] after 2 min: 100.1%
--
compound: CC(C)Cc1ccc(C(C)C(=O)O)cc1 (stereo not shown) [Suc. monolaurate + HPC, ibuprofen]
Amount released [%] after 2 min: 100.8%
--
compound: CC(C)Cc1ccc(C(C)C(=O)O)cc1 (stereo not shown) [Commercial article, ibuprofen]
Amount released [%] after 2 min: 15.1%
--
compound: CC(C)Cc1ccc(C(C)C(=O)O)cc1 (stereo not shown) [Suc. monolaurate + Klucel ® LF, ibuprofen]
Amount released [%] after 2 min: 98.9%

Read the next record carefully.
Query: # return recorded Amount released [%] after 2 min for entry CC(C)Cc1ccc(C(C)C(=O)O)cc1 (stereo not shown) [Suc. monolaurate + dextran 200, ibuprofen]
Reply: 100.4%
